Assay: Pharmacokinetic study of 5 compounds in rat plasma after oral administration of Zuogui Pill extract (HPLC-MS/MS, noncompartmental analysis)
Type: in vivo, Female Sprague-Dawley rats
Details: female, Sprague-Dawley, rat, po, 1.5 mL/100 g, osteoporotic rats with kidney-yin-deficiency, oral Zuogui Pill extract 1.5 mL/100 g, n = 6, read-out: MRT0–∞
READOUT KIND: MRT inf (h)

Worked cases, MRT inf given:
OCC1=C[C@@H](O)[C@@H]2C=CO[C@@H](O[C@@H]3O[C@H](CO)[C@@H](O)[C@H](O)[C@H]3O)[C@H]12 : 14.1
COC(=O)C1=CO[C@@H](O[C@@H]2O[C@H](CO)[C@@H](O)[C@H](O)[C@H]2O)[C@@H]2[C@H](C)O[C@@H](O)C[C@H]12 [Morroniside, morroniside] : 5.21
O=Cc1ccc(O)c(O)c1 : 3.79

P. O=C(/C=C/c1ccc(O)c(O)c1)O[C@@H]1C[C@](O)(C(=O)O)C[C@@H](O)[C@H]1O
Q. COC(=O)C1=CO[C@@H](O[C@@H]2O[C@H](CO)[C@@H](O)[C@H](O)[C@H]2O)[C@@H]2[C@@H](C)[C@@H](O)C[C@H]12
Pick one: P or Q . Which one has the lower reported MRT inf? Pick one and reply with its label.
P

---

Test: Pharmacokinetic study of 5 compounds in rat plasma after oral administration of Zuogui Pill extract (HPLC-MS/MS, noncompartmental analysis)
Format: in vivo, Female Sprague-Dawley rats
Conditions: normal rats, oral Zuogui Pill extract 1.5 mL/100 g, n = 6
Protocol: Female Sprague-Dawley rats (180–220 g) were purchased from Shanghai Laboratory Animal Centre (Shanghai, China). The rats were maintained in a standard environment (22 ± 1°C, 60 ± 10% relative humidity, and a 12 h light/dark cycle) for one week to acclimate and fed water and food ad libitum. Twenty-four rats were divided randomly into […] and treated through ovary enucleation to establish the model of osteoporosis. […]
READOUT KIND: AUC0–t (h∗ng/mL)

1. COC(=O)C1=CO[C@@H](O[C@@H]2O[C@H](CO)[C@@H](O)[C@H](O)[C@H]2O)[C@@H]2[C@H](C)O[C@@H](O)C[C@H]12 [Morroniside, morroniside]
2. COC(=O)C1=CO[C@@H](O[C@@H]2O[C@H](CO)[C@@H](O)[C@H](O)[C@H]2O)[C@@H]2[C@@H](C)[C@@H](O)C[C@H]12
3. OCC1=C[C@@H](O)[C@@H]2C=CO[C@@H](O[C@@H]3O[C@H](CO)[C@@H](O)[C@H](O)[C@H]3O)[C@H]12
Consider the compounds listed above. Rank them by AUC0–t in ascending numerical order. Reply with the labels, ordered as the question asks.
3, 1, 2

---

Test: Pharmacokinetic study of 5 compounds in rat plasma after oral administration of Zuogui Pill extract (HPLC-MS/MS, noncompartmental analysis)
Format: in vivo, Female Sprague-Dawley rats
Conditions: female, Sprague-Dawley, rat, po, 1.5 mL/100 g, normal rats, oral Zuogui Pill extract 1.5 mL/100 g, n = 6
READOUT KIND: half-life (h)

COC(=O)C1=CO[C@@H](O[C@@H]2O[C@H](CO)[C@@H](O)[C@H](O)[C@H]2O)[C@@H]2[C@@H](C)[C@@H](O)C[C@H]12 [Loganin, loganin] : 4.51
O=Cc1ccc(O)c(O)c1 [Protocatechuic aldehyde, protocatechuic aldehyde] : 10.9

I. COC(=O)C1=CO[C@@H](O[C@@H]2O[C@H](CO)[C@@H](O)[C@H](O)[C@H]2O)[C@@H]2[C@H](C)O[C@@H](O)C[C@H]12 [Morroniside, morroniside]
II. OCC1=C[C@@H](O)[C@@H]2C=CO[C@@H](O[C@@H]3O[C@H](CO)[C@@H](O)[C@H](O)[C@H]3O)[C@H]12 [Aucubin, aucubin]
Pick one: I or II . Which one has the lower reported half-life? Pick one and reply with its label.
I
(I: 3.66 h, II: 5.97 h)

---

Test: Pharmacokinetic study of 5 compounds in rat plasma after oral administration of Zuogui Pill extract (HPLC-MS/MS, noncompartmental analysis)
Format: in vivo, Female Sprague-Dawley rats
Settings: osteoporotic rats with kidney-yang-deficiency, oral Zuogui Pill extract 1.5 mL/100 g, n = 6
READOUT KIND: AUC0–∞ (h∗ng/mL)

a. OCC1=C[C@@H](O)[C@@H]2C=CO[C@@H](O[C@@H]3O[C@H](CO)[C@@H](O)[C@H](O)[C@H]3O)[C@H]12 [Aucubin, aucubin]
b. COC(=O)C1=CO[C@@H](O[C@@H]2O[C@H](CO)[C@@H](O)[C@H](O)[C@H]2O)[C@@H]2[C@H](C)O[C@@H](O)C[C@H]12 [Morroniside, morroniside]
Pick one: a or b . Which one has the lower reported AUC0–∞? Pick one and reply with its label.
a
(a: 111.33 h∗ng/mL, b: 1750.35 h∗ng/mL)

---

Assay: Stability of analytes in rat plasma (QC samples) under storage conditions
Settings: −20°C to 25°C, low QC (2, 40, 8, 1, 0.1 ng/mL for chlorogenic acid, loganin, morroniside, aucubin, protocatechuic aldehyde), n = 5
READOUT KIND: Stability, Three freeze-thaw cycles, Mean (%)

O=Cc1ccc(O)c(O)c1 : 90.8
COC(=O)C1=CO[C@@H](O[C@@H]2O[C@H](CO)[C@@H](O)[C@H](O)[C@H]2O)[C@@H]2[C@@H](C)[C@@H](O)C[C@H]12 : 86.4
OCC1=C[C@@H](O)[C@@H]2C=CO[C@@H](O[C@@H]3O[C@H](CO)[C@@H](O)[C@H](O)[C@H]3O)[C@H]12 : 84.2
COC(=O)C1=CO[C@@H](O[C@@H]2O[C@H](CO)[C@@H](O)[C@H](O)[C@H]2O)[C@@H]2[C@H](C)O[C@@H](O)C[C@H]12 [Morroniside, morroniside] : 93.0

---

Assay: Stability of analytes in rat plasma (QC samples) under storage conditions
Settings: −20°C to 25°C, middle QC (40, 800, 160, 20, 2 ng/mL in the same order), n = 5
READOUT KIND: Stability, Three freeze-thaw cycles, Mean (%)

O=C(/C=C/c1ccc(O)c(O)c1)O[C@@H]1C[C@](O)(C(=O)O)C[C@@H](O)[C@H]1O [Chlorogenic acid, chlorogenic acid] : 89.3
COC(=O)C1=CO[C@@H](O[C@@H]2O[C@H](CO)[C@@H](O)[C@H](O)[C@H]2O)[C@@H]2[C@@H](C)[C@@H](O)C[C@H]12 [Loganin, loganin] : 89.5
COC(=O)C1=CO[C@@H](O[C@@H]2O[C@H](CO)[C@@H](O)[C@H](O)[C@H]2O)[C@@H]2[C@H](C)O[C@@H](O)C[C@H]12 [Morroniside, morroniside] : 91.5
O=Cc1ccc(O)c(O)c1 [Protocatechuic aldehyde, protocatechuic aldehyde] : 83.4
OCC1=C[C@@H](O)[C@@H]2C=CO[C@@H](O[C@@H]3O[C@H](CO)[C@@H](O)[C@H](O)[C@H]3O)[C@H]12 [Aucubin, aucubin] : 86.9

---

Experiment: Pharmacokinetic study of 5 compounds in rat plasma after oral administration of Zuogui Pill extract (HPLC-MS/MS, noncompartmental analysis)
Type: in vivo, Female Sprague-Dawley rats
Conditions: female, Sprague-Dawley, rat, po, 1.5 mL/100 g, osteoporosis rats (ovariectomized), oral Zuogui Pill extract 1.5 mL/100 g, n = 6
Experimental: Female Sprague-Dawley rats (180–220 g) were purchased from Shanghai Laboratory Animal Centre (Shanghai, China). The rats were maintained in a standard environment (22 ± 1°C, 60 ± 10% relative humidity, and a 12 h light/dark cycle) for one week to acclimate and fed water and food ad libitum. Twenty-four rats were divided randomly into […] and treated through ovary enucleation to establish the model of osteoporosis. […]
READOUT KIND: half-life (h)

Worked cases, half-life given:
COC(=O)C1=CO[C@@H](O[C@@H]2O[C@H](CO)[C@@H](O)[C@H](O)[C@H]2O)[C@@H]2[C@H](C)O[C@@H](O)C[C@H]12 [Morroniside, morroniside] : 2.4
OCC1=C[C@@H](O)[C@@H]2C=CO[C@@H](O[C@@H]3O[C@H](CO)[C@@H](O)[C@H](O)[C@H]3O)[C@H]12 : 3.67
O=Cc1ccc(O)c(O)c1 : 12

P. O=C(/C=C/c1ccc(O)c(O)c1)O[C@@H]1C[C@](O)(C(=O)O)C[C@@H](O)[C@H]1O
Q. COC(=O)C1=CO[C@@H](O[C@@H]2O[C@H](CO)[C@@H](O)[C@H](O)[C@H]2O)[C@@H]2[C@@H](C)[C@@H](O)C[C@H]12
For this pair, P and Q , which shows a numerically higher half-life? Pick one and reply with its label.
P
(P: 6.38 h, Q: 2.74 h)

---

Experiment: Stability of analytes in rat plasma (QC samples) under storage conditions
Details: 25°C, low QC (2, 40, 8, 1, 0.1 ng/mL for chlorogenic acid, loganin, morroniside, aucubin, protocatechuic aldehyde), n = 5
READOUT KIND: Stability, Room temperature for 4 h, Mean (%)

O=Cc1ccc(O)c(O)c1 : 86.8
COC(=O)C1=CO[C@@H](O[C@@H]2O[C@H](CO)[C@@H](O)[C@H](O)[C@H]2O)[C@@H]2[C@@H](C)[C@@H](O)C[C@H]12 : 88.3
COC(=O)C1=CO[C@@H](O[C@@H]2O[C@H](CO)[C@@H](O)[C@H](O)[C@H]2O)[C@@H]2[C@H](C)O[C@@H](O)C[C@H]12 [Morroniside, morroniside] : 90.8
OCC1=C[C@@H](O)[C@@H]2C=CO[C@@H](O[C@@H]3O[C@H](CO)[C@@H](O)[C@H](O)[C@H]3O)[C@H]12 : 89.8
